system: Hs-578T; experiment: NCI tumour cell line growth inhibition, 48 h
The source made the active and inactive calls. No stated cut-off is given here; in the data, active = GI50 up to about 1.1 µM and inactive = higher.
Pick from 1 = active, -1 = inactive when you respond.

| Compound | Class assignment |
| --- | --- |
| Cc1cc(S(=O)(=O)Nc2nc3ccccc3nc2-c2ccc(Cl)cc2)c(S)cc1Cl | -1 |
| CCOC(=O)/C(C(=O)NC(C)C)=C(/N)N1CCOCC1 | -1 |
| CN(C)CCSC1=Nc2ccc(Cl)cc2C(c2ccccc2Cl)=NC1 | -1 |
| Nc1nc(Cl)cc(NCC2(O)CC(CO)C2)n1 (configuration not stated) | -1 |
| Cc1nc(O)nc(N/N=C/c2ccc(Cl)c(Cl)c2)c1C(=O)Nc1ccc(Cl)c(Cl)c1 | -1 |

*Q* What is the recorded call for this compound in the test? CC(=O)c1sc2[n+](c1C)C(=O)/C(=C\c1ccccc1Cl)S2
*A* -1

*Q* Similarly, NC(=O)c1sc2nc3ccccc3n2c1N ?
*A* -1

*Q* Similarly, COC(=O)C1=C(C(=O)OC)C(C(=O)c2ccc(Br)cc2)N2N=C(c3ccc(Cl)cc3)C=CC12 (configuration not stated) ?
*A* -1

*Q* Similarly, CC(C)C1N(C)c2ccc(Cl)cc2[C@H]2c3ccccc3CCN12 (some centres not stated) ?
*A* -1

*Q* Similarly, Nc1cc(S(=O)(=O)O)cc2ccc(S(=O)(=O)O)cc12 ?
*A* -1

---

Measured GI50 accompanies every entry in the list below.
test system: UO-31; experiment: NCI tumour cell line growth inhibition, 48 h
Calls of active or inactive are those of the source. Rule as the data show it: active = GI50 up to about 1.1 µM and inactive = higher.

// below: answered compounds
| Compound | Tested target | Obs value |
| --- | --- | --- |
| COc1cc(C2SCC(=O)N2c2cc(Cl)c(Cl)cc2Cl)cc(OC)c1OC (configuration not stated) | UO-31 | 34.7 µM (inactive) |
| CCOC(=O)c1ccc(Nc2nc3ccc(C(F)(F)F)cc3nc2-c2ccccc2)cc1 | UO-31 | > 100 µM (inactive) |

*Q* So what's the measured GI50 for this one? COC(=O)C(Cc1c[nH]c2ccccc12)NP(=O)(O)OCC1OC(n2cc(Br)c(=O)[nH]c2=O)CC1O (configuration not stated)
*A* > 100 µM (inactive)

*Q* Similarly, O=c1c2cc(S(=O)(=O)O)ccc2nc(COc2ccc(Oc3ccc(Cl)cc3Cl)cc2)n1-c1ccc(Cl)cc1Oc1c(Cl)cccc1Cl ?
*A* 18.3 µM (inactive)

---

test system: SW-620; assay: NCI tumour cell line growth inhibition, 48 h
Active and inactive are the calls of the source. Cut-off read from the data, not from the text of the source: active = GI50 up to about 1.1 µM and inactive = higher.
Measured GI50 accompanies every entry in the list below.

// below: answered compounds
| Compound | Tested target | GI50 |
| --- | --- | --- |
| CCOC(=O)/C=C/C1(CCOC(C)=O)CCCCC1 | SW-620 | > 10 µM (inactive) |
| O=C(O)C1C(C(=O)Nc2ccc3c(c2)Cc2ccccc2-3)C2(Cl)C(Cl)=C(Cl)C1(Cl)C2(Cl)Cl (stereo not given) | SW-620 | 25.6 µM (inactive) |
| CN1C(=O)C(=Cc2ccc(Br)cc2)C(=O)N(C)C1=O | SW-620 | > 100 µM (inactive) |

*Q* So what's the measured GI50 for this one? c1ccc2c(c1)ccc1ncccc12
*A* > 100 µM (inactive)

*Q* Similarly, COC(=O)C1=C(O)c2cc(OC)c(OC)c(OC)c2[C@H](c2cc(OC)c(OC)c(OC)c2)C1C(=O)OC (stereo not given in full) ?
*A* 29 µM (inactive)

*Q* Similarly, COc1ccc2c(c1)CC[C@@H]1[C@@H]2CC[C@]2(C)C(=O)/C(=C/c3cc(OC)c(OC)c(OC)c3)C[C@@H]12 ?
*A* > 100 µM (inactive)

*Q* Similarly, CCOC(=O)NC ?
*A* > 100 µM (inactive)

*Q* Similarly, c1ccc2cc3[s+]snc3cc2c1 ?
*A* > 100 µM (inactive)

*Q* Similarly, COc1cc(S(=O)(=O)Nc2ccc(-c3csc(N4C(=O)CSC4c4ccccc4)n3)cc2)ccc1Cl (stereo not given) ?
*A* 42.4 µM (inactive)

*Q* Similarly, O=C1CSC(c2ccc(Cl)cc2)N1c1ccc(Oc2ccc(Cl)cc2)c(Cl)c1 (stereo not given) ?
*A* 18.3 µM (inactive)

These entries and their values trace back to ChEMBL document CHEMBL1201862.
